- target.or.test.system: pooled human IgG
property.label: Enzyme Activity Endpoint Assay (purified): Fc (ng/µL)

protein | test.result
PRT-79 (protein) MANQEIRYSEVTPKTITSVWTKGVTPPAKFTQNEDVFHAPYVANQGWYDITKTFNGKDDLLCGAATAGNMLHWWFDQNKEQIEAYLKKHPEKQKIMFGDQELLDVRKVINTKDDQTNSELFNYFKDKAFPNLSARRLGVMPDLVLDMFINGYRLNVGKTQTTDVNRTYQDKDPRGGIFDAVFTRGDQSKLLTSRHDFKEKNLKEISDLIKQELTEGKALGLSHTYANVRINHVINLWGADFDSEGNLEAIYVTDSDSNASIGMKKYFVGVNSAGKVAISAKEIEEDNIGAQVLGLFTLSTGQDIWEQTN | 44
